Values compiled from patent US7973056B2.

Catalogue of molecules with associated survival rate
# System: Candida albicans TIMM 1623
# Protocol Details: Antifungal activity test (in vivo), mouse systemic infection model
# Assay Conditions: 1 mg/kg s.c.; day 4

Example cases with answers are listed next.
# Molecule, survival rate
measured = [
    ("C[C@@H](N1CC=C(c2ccc(Cl)cn2)CC1)[C@](O)(Cn1cncn1)c1ccc(F)cc1F", 100),
    ("C[C@@H](N1CCC(c2ccccn2)CC1)[C@](O)(Cn1cncn1)c1ccc(F)cc1F", 100),
    ("OC(Cn1cncn1)(Cn1cncn1)c1ccc(F)cc1F [FLCZ, Fluconazole, reference compound]", 100),
]

We now examine a further molecule.
QUERY: Tell me reported survival rate for C[C@@H](N1CC=C(c2ccccn2)CC1)[C@](O)(Cn1cncn1)c1ccc(F)cc1F , tested with Candida albicans TIMM 1623.
RESULT: 80
